Where do the numbers come from? From patent US9180120B2.

Recorded pIC50 by entry
system under test: human V1a receptor (Homo sapiens (Human), UniProt P37288)
Sequence (P37288 whole entry): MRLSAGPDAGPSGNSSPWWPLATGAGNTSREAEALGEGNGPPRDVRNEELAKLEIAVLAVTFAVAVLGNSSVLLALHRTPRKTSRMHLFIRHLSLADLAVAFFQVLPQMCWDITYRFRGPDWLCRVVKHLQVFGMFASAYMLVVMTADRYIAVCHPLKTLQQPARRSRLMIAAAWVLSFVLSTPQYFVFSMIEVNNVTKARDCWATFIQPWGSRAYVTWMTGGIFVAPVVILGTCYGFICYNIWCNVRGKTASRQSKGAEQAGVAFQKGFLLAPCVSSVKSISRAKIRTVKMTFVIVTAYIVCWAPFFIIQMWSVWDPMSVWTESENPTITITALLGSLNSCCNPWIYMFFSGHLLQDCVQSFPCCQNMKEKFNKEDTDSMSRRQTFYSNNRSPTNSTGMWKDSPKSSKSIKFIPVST
procedure summary: Cellular in vitro assay for determining the vasopressin receptor activity (aequorin luminescence, CHO cells, antagonism of [Arg8]-vasopressin)
run parameters: cell line transfected with the human V1a receptor; agonist [Arg8]-vasopressin; read-out: IC50 hV1a
Source text: • EDTA ethylenediaminetetraacetic acid • DMEM Dulbecco's Modified Eagle Medium • FCS foetal calf serum • HEPES 4-(2-hydroxyethyl)-1-piperazineethanesulphonic acid • SmGM Smooth Muscle Cell Growth Media • Tris-HCl 2-amino-2-(hydroxymethyl)-1,3-propanediol hydrochloride B-1. […] The identification of agonists and antagonists of the V1a and V2 vasopressin receptors from humans and rats and also the quantification of the activity of the compounds of the invention takes place using recombinant cell lines. […]
Quick note: pIC50 values are minus log10 of concentrations in mol/L.

1) COCCn1c(-c2ccc(Cl)s2)nn(CC(=O)NCC(NC(=O)OC(C)(C)C)c2ccccc2C(F)(F)F)c1=O (racemic) = 7.29

Field: pIC50 (human V1a receptor (Homo sapiens (Human), UniProt P37288)). Entry: NC(=O)OC(CNC(=O)Cn1nc(-c2ccc(Cl)cc2)n(C[C@H](O)C(F)(F)F)c1=O)c1ccccc1Cl (stereo partly drawn)
8.30

Field: pIC50 (human V1a receptor (Homo sapiens (Human), UniProt P37288)). Entry: "O=C(Cn1nc(-c2ccc(Cl)cc2)n(C[C@H](O)C(F)(F)F)c1=O)N[C@@H](CO)Cc1cccc(C(F)(F)F)c1"
8.40
